- TGT: T1, recombinant human CD3 epsilon/gamma heterodimer (human, UniProt P07766 23-126; P09693 23-116)
- T1 construct: Recombinant protein in solution (200-50 nM) in the Octet assay; also called hCD3 E/G
- ASSAY_REMARKS: Octet BLI, mAb on FAB2G sensor, hCD3 E/G 200-50 nM; R^2 1.00
EXPERIMENTAL_ENDPOINT: Response
Please give the numeric answer without any surrounding text.

In one line, give reported Response of the entry ABL-CD3-19 (antibody, V domains shown, Chimeric hybridoma mAb: human V, CH1, upper hinge; mouse middle hinge, CH2, CH3) VH: EVQLVESGGGLVKPGGSLRLSCAASGFTLSSYSMNWVRQAPGKGLEWVSSISRSSSYIYYADSVKGRFTISRDNAKNSLYLQMNSLRAEDTAVYYCARERWELLYFDYWGQGTLVTVSS VL: NFMLTQPHSVSESPGKTVTISCTRSSGSIASNYVQWYQQRPGSSPTTVIYEDNQRPSGVPDRFSGSIDSSSNSASLTISGLKTEDEADYYCQSFDNSNRVFGGGTKLTVL .
0.4
